Kd for assorted compounds
target: Quadruplex DNA; experiment: Binding affinity to human G4-quadruplex c-kit2 DNA 5'- CGGGCGGGCGCGAGGGAGGGT-3' assessed as change in fluorescence intensity at 1 uM incubated for 0.5 hrs in presence of different concentrations of DNA by fluorescence spectra analysis; assay type: nucleic-acid assay
Use µM as the unit, but write only the number.

Cpd Smiles | Unit Descriptor | Val
COc1ccc2cc3[n+](cc2c1OC)CCc1cc2c(cc1-3)OCO2 | µM | 4.22

Qu. Request the reported Kd associated with c1c2c(cc3c1OCO3)-c1cc3ccc4c(c3c[n+]1CC2)OCO4
Ans. 2.59

====

biological target: dsDNA; test: Binding affinity to double stranded DNA ssab (unknown origin) incubated for 0.5 hrs in presence of different concentration DNA by fluorescence spectra analysis; assay type: nucleic-acid assay
Overview of reported EC50 across a group of compounds:
Express your answer in nM, writing the number without its unit.

Compound | Unit Descriptor | EC50
COc1ccc2c(c[n+](C)c3c4cc5c(cc4ccc23)OCO5)c1OC [CHELERYTHRINE] | nM | 1060

Qu. May I ask what EC50 has been recorded for c1c2c(cc3c1OCO3)-c1cc3ccc4c(c3c[n+]1CC2)OCO4 [COPTISINE] ?
Ans. 5570

Qu. Repeat with C[n+]1cc2c3c(ccc2c2ccc4cc5c(cc4c21)OCO5)OCO3 [SANGUINARIUM]
Ans. 740

Qu. Can you handle COc1ccc2cc3[n+](cc2c1OC)CCc1cc2c(cc1-3)OCO2 [BERBERINE] next?
Ans. 1040
